# system_under_test: KLK5 (Homo sapiens)
# Construct: purchased Novoprotein
# Sequence (Q9Y337 23-293): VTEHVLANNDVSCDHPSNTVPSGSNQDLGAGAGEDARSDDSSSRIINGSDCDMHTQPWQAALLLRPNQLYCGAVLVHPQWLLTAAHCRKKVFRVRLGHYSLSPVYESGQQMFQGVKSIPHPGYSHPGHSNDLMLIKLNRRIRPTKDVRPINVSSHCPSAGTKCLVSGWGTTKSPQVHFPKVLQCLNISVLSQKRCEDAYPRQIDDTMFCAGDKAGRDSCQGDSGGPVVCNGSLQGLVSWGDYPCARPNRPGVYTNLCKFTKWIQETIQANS
# test_name: biochemical
# Assay type: binding
# assay_setup: ITC, 25°C
Positions of bridges follow the written chain, without caps; N, C: chain ends. Residues, ends and D or L forms follow the SMILES beside them.
// reported ΔG per item
Quick reminder: number only, in kcal/mol, skip the unit.

Briefly, ΔG measured for CC[C@H](C)[C@@H]1NC(=O)[C@H](CO)NC(=O)[C@H](CCCCN)NC(=O)[C@H]([C@@H](C)O)NC(=O)[C@@H]2CSSC[C@H](NC(=O)[C@H](Cc3c[nH]cn3)NC(=O)[C@@H]3CCCN3C(=O)[C@@H]3CCCN3C1=O)C(=O)N[C@@H](Cc1ccccc1)C(=O)N1CCC[C@H]1C(=O)N[C@@H](CC(=O)O)C(=O)NCC(=O)N[C@@H](CCCNC(=N)N)C(=O)N2 [Analogue I10H] (cyclo(CFPDGRCTKSIPPH); disulfide 1-7) : -8.621

Briefly, ΔG measured for CC[C@H](C)[C@@H]1NC(=O)[C@H](CO)NC(=O)[C@H](CCCCN)NC(=O)[C@H]([C@@H](C)O)NC(=O)[C@@H]2CSSC[C@H](NC(=O)[C@H](Cc3c[nH]cn3)NC(=O)[C@@H]3CCCN3C(=O)[C@@H]3CCCN3C1=O)C(=O)N[C@@H](Cc1c[nH]c3ccccc13)C(=O)N1CCC[C@H]1C(=O)N[C@@H](CC(=O)O)C(=O)NCC(=O)N[C@@H](CCCNC(=N)N)C(=O)N2 [Analogue 2] (cyclo(CTKSIPPHCWPDGR); disulfide 1-9) : -9.579

Briefly, ΔG measured for CC[C@H](C)[C@@H]1NC(=O)[C@H](CO)NC(=O)[C@H](CCCNC(=N)N)NC(=O)[C@H]([C@@H](C)O)NC(=O)[C@@H]2CSSC[C@H](NC(=O)[C@H](Cc3c[nH]cn3)NC(=O)[C@@H]3CCCN3C(=O)[C@@H]3CCCN3C1=O)C(=O)N[C@@H](Cc1c[nH]c3ccccc13)C(=O)N1CCC[C@H]1C(=O)N[C@@H](CC(=O)O)C(=O)NCC(=O)N[C@@H](CCCNC(=N)N)C(=O)N2 [Analogue 6] (cyclo(CTRSIPPHCWPDGR); disulfide 1-9) : -10.51

---
Briefly, ΔG measured for CC[C@H](C)[C@@H]1NC(=O)[C@H](CO)NC(=O)[C@H](CCCNC(=N)N)NC(=O)[C@H]([C@@H](C)O)NC(=O)[C@@H]2CSSC[C@H](NC(=O)[C@H](Cc3c[nH]cn3)NC(=O)[C@@H]3CCCN3C(=O)[C@@H]3CCCN3C1=O)C(=O)N[C@@H](Cc1ccccc1)C(=O)N1CCC[C@H]1C(=O)N[C@@H](CC(=O)O)C(=O)NCC(=O)N[C@@H](CCCNC(=N)N)C(=O)N2 [Analogue 1] (cyclo(CFPDGRCTRSIPPH); disulfide 1-7) : -9.457
